# Study Target: UniProt:Q95323
pKi: −log10 of the molar value.
Property Label: pKi

Sample records with pKi:
Compound	Property Label	Result
NS(=O)(=O)c1ccc(C(=O)NC(Cc2ccc(O)c(O)c2)C(=O)O)cc1 (stereo not given)	pKi	6.98
CSCC[C@H](NC(=O)c1ccc(Cl)c(S(N)(=O)=O)c1)C(=O)O	pKi	6.19
NS(=O)(=O)c1cc(C(=O)NCCC(=O)O)ccc1Cl	pKi	6.21
NS(=O)(=O)c1ccc(NC(=O)c2ccc(Cl)c(S(N)(=O)=O)c2)cc1	pKi	7.18
NS(=O)(=O)c1ccc(C(=O)N[C@@H](Cc2ccccc2)C(=O)O)cc1	pKi	6.89

[I] CC(C)C[C@H](NC(=O)c1ccc(S(N)(=O)=O)cc1)C(=O)O
[II] NS(=O)(=O)c1ccc(C(=O)N[C@@H](CO)C(=O)O)cc1
Between I and II , which one shows the smaller pKi number? Selection: enter the item's label.
II

* * *

Reported Ki values, Carbonic anhydrase 1 (Homo sapiens).
Property Label: Ki (nM)

[1] NS(=O)(=O)c1ccc(C(=O)NC(C(=O)O)c2ccccc2)cc1 (stereo unspecified)
[2] NS(=O)(=O)c1ccc(C(=O)N[C@@H](CS)C(=O)O)cc1
Just curious, which one has the larger Ki reading, 1 or 2 ? Selection: enter the item's label.
2

* * *

# Test Summary: Compound was evaluated for in vitro corneal permeability in cornea intact
# Assay type: ADME, tissue-based
Property Label: Km x10e3 (hr-1)

Chemical Structure	Unit Label	Km x10e3
NS(=O)(=O)c1ccc(C(=O)N[C@@H](Cc2c[nH]cn2)C(=O)N[C@@H](Cc2ccccc2)C(=O)O)cc1	hr-1	2.9
NS(=O)(=O)c1nnc(NC(=O)c2ccc(Cl)c(S(N)(=O)=O)c2)s1	hr-1	3.1
CC(C)C[C@H](NC(=O)c1ccc(S(N)(=O)=O)cc1)C(=O)NCC(=O)O	hr-1	3.3
NS(=O)(=O)c1ccc(CCNC(=O)c2ccc(S(N)(=O)=O)cc2)cc1	hr-1	2.5

* * *

Reported Ki values, Carbonic anhydrase 4 (Bos taurus).
Property Label: Ki (nM)

Sample records with Ki:
Chemical Structure	Ki [nM]
CC(C)[C@H](NC(=O)c1ccc(S(N)(=O)=O)cc1)C(=O)O	150
NS(=O)(=O)c1ccc(C(=O)N[C@@H](Cc2ccc(O)cc2)C(=O)O)cc1	120
CC[C@H](C)[C@H](NC(=O)c1ccc(Cl)c(S(N)(=O)=O)c1)C(=O)O	360

[a] NC(=O)CC[C@H](NC(=O)c1ccc(Cl)c(S(N)(=O)=O)c1)C(=O)O
[b] NS(=O)(=O)c1cc(C(=O)NCCC(=O)N[C@@H](Cc2cnc[nH]2)C(=O)O)ccc1Cl
Just curious, which one has the larger Ki reading, a or b ? Selection: enter the item's label.
a
(a: 410 nM, b: 50 nM)

* * *

Reported Ki values, Carbonic anhydrase 4 (Bos taurus, UniProt Q95323).
Property Label: Ki (nM)

Compound	Study Target	Property Label	Result
NS(=O)(=O)c1cc(C(=O)NCC(=O)O)ccc1Cl	Carbonic anhydrase 4 (Bos taurus, UniProt Q95323)	Ki	600

[I] NS(=O)(=O)c1ccc(C(=O)N[C@H](C(=O)O)C(O)c2ccccc2)cc1 (stereo not given in full)
[II] NS(=O)(=O)c1cc(C(=O)Nc2nnc(S)s2)ccc1Cl
Just curious, which one has the larger Ki reading, I or II ? Selection: enter the item's label.
I
(I: 62 nM, II: 21 nM)

[P] C[C@@H](O)[C@H](NC(=O)c1ccc(S(N)(=O)=O)cc1)C(=O)O
[Q] NS(=O)(=O)c1cc(C(=O)NCC(=O)NCC(=O)O)ccc1Cl
[R] NS(=O)(=O)c1cc(C(=O)N[C@@H](Cc2c[nH]cn2)C(=O)N[C@@H](Cc2ccccc2)C(=O)O)ccc1Cl
[S] NS(=O)(=O)c1cc(C(=O)N[C@@H](Cc2c[nH]cn2)C(=O)NCC(=O)O)ccc1Cl
With regard to Ki, arrange the entries in ascending order, please. Return the labels ranked in the requested order, please.
R, S, Q, P

[I] CC(C)[C@H](NC(=O)c1ccc(Cl)c(S(N)(=O)=O)c1)C(=O)O
[II] NS(=O)(=O)c1cc(C(=O)N[C@H](C(=O)O)C(O)c2ccccc2)ccc1Cl (stereo not given in full)
Just curious, which one has the larger Ki reading, I or II ? Selection: enter the item's label.
I
